Biological target: EGFR^19del/T790M/C797S (Homo sapiens, UniProt P00533, T790M/C797S, form not given)
Construct: fused on or other part: Probably a GST tag on the cytoplasmic fragment, as in the vendor's product
Sequence (P00533 with tags, fused parts or gaps DEL746-750/T790M/C797S, form open): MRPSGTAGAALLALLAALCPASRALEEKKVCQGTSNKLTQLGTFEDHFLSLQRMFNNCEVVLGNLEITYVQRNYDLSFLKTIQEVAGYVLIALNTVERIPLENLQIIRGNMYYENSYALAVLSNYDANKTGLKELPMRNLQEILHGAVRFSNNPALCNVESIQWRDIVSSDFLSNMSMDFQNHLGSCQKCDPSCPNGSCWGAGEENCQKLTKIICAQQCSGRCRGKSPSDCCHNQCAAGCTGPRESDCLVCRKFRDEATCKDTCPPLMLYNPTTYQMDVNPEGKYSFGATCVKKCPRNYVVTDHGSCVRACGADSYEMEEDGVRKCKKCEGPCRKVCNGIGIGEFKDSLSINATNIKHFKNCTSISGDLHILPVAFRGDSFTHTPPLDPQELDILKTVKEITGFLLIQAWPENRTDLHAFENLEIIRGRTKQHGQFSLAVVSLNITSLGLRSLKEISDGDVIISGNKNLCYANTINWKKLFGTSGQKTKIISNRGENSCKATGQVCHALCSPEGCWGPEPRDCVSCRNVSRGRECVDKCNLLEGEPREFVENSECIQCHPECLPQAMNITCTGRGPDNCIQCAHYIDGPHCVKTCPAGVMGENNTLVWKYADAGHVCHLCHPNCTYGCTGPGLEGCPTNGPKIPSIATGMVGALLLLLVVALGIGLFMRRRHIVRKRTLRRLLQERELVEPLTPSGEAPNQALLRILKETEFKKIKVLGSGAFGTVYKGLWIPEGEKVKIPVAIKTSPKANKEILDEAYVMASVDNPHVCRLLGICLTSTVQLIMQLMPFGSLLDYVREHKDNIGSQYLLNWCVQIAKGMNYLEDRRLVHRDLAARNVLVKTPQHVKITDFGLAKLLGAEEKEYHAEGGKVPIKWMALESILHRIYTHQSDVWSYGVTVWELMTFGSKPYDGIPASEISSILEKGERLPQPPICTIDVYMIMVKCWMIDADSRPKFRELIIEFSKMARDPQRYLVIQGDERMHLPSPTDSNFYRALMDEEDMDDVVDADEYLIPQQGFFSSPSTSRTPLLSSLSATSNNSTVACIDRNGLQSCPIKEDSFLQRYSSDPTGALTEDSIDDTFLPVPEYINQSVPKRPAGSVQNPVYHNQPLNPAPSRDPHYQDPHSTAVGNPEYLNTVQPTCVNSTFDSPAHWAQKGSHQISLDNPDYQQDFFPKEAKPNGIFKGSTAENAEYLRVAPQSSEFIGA
Experiment: ELISA kinase activity inhibition, EGFR 19del/T790M/C797S
Type: biochemical
Conditions: ATP 5 μM, read-out: The average IC50 value (nM) for inhibiting the activity of different tyrosine kinases, EGFR^19del/T790M/C797S
ENDPOINT: IC50 (nM)

Observe how each entry below is paired with its result.
MOLECULE | IC50 / nM
CCS(=O)(=O)n1cc2c3ccc(cc31)OCCCn1cc(cn1)-c1cc(ccc1N1CCOCC1)Nc1ncc(Cl)c-2n1 | 6.3
CCS(=O)(=O)n1cc2c3ccc(cc31)OCCCn1cc(cn1)-c1cc(c(C)cc1N1CCOCC1)Nc1nccc-2n1 [HC950M] | 7.3
CCS(=O)(=O)n1cc2c3ccc(cc31)OCCCn1cc(cn1)-c1cc(cc(C3CCCC3)c1N1CCOCC1)Nc1ncc(Cl)c-2n1 | 82.3
CCS(=O)(=O)n1cc2c3ccc(cc31)OCCCn1cc(cn1)-c1cc(ccc1N1CCOCC1)Nc1nccc-2n1 | 4.3
CCS(=O)(=O)n1cc2c3ccc(cc31)OCC(C)Cn1cc(cn1)-c1cc(ccc1N1CCOCC1)Nc1ncc(Cl)c-2n1 (stereo not drawn) | 30.5
CCc1cc(N2CCOCC2)c2cc1Nc1nccc(n1)-c1cn(S(=O)(=O)CC)c3cc(ccc13)OCCCn1ccc-2n1 | 23.3
CCS(=O)(=O)n1cc2c3ccc(cc31)OCCCn1cc(cn1)-c1cc(c(OC)cc1N1CCOCC1)Nc1nccc-2n1 | 1.7

(P) CCS(=O)(=O)n1cc2c3ccc(cc31)OCCCn1cc(cn1)-c1cc(cc(C=C(C)C)c1N1CCOCC1)Nc1ncc(Cl)c-2n1
(Q) Cc1cc(N2CCOCC2)c2cc1Nc1ncc(Cl)c(n1)-c1cn(C)c3cc(ccc13)OCCCn1cc-2cn1
Return label of the item with the larger IC50. Candidates: P , Q . Kindly give the label for the entry you pick.
P
(P: 29 nM, Q: 6.8 nM)

###

Target: EGFR^19del/T790M/C797S (Homo sapiens, UniProt P00533, T790M/C797S, form not given)
Construct: fused on or other part: Probably a GST tag on the cytoplasmic fragment, as in the vendor's product
Test: ELISA kinase activity inhibition, EGFR 19del/T790M/C797S
Type: biochemical
Conditions: ATP 5 μM, read-out: The average IC50 value (nM) for inhibiting the activity of different tyrosine kinases, EGFR^19del/T790M/C797S
ENDPOINT: IC50 (nM)

Observe how each entry below is paired with its result.
COMPOUND | ENDPOINT | UNITS_LABEL | MEASURED_RESULT
CCS(=O)(=O)n1cc2c3ccc(cc31)OCCCn1cc(cn1)-c1cc(c(OC)cc1N1CCOCC1)Nc1ncc(Cl)c-2n1 | IC50 | nM | 35.1
CCS(=O)(=O)n1cc2c3ccc(cc31)OCC1(CC1)Cn1cc(cn1)-c1cc(c(OC)cc1N1CCOCC1)Nc1nccc-2n1 | IC50 | nM | 33
CCOc1cc(N2CCOCC2)c2cc1Nc1nccc(n1)-c1cn(S(=O)(=O)CC)c3cc(ccc13)OCCCn1cc-2cn1 | IC50 | nM | 7.4

(a) CCS(=O)(=O)n1cc2c3ccc(cc31)OCC1(CC1)Cn1cc(cn1)-c1cc(ccc1N1CCOCC1)Nc1ncc(Cl)c-2n1
(b) CCS(=O)(=O)n1cc2c3ccc(cc31)OCCCn1cc(cn1)-c1cc(c(C)cc1N1CCOCC1)Nc1ncc(Cl)c-2n1
(c) CCS(=O)(=O)n1cc2c3ccc(cc31)OCCCCCCOc1cc(ccc1N1CCOCC1)Nc1ncc(Cl)c-2n1 [reference compound]
(d) CCS(=O)(=O)n1cc2c3ccc(cc31)OCC(C)Cn1cc(cn1)-c1cc(c(OC)cc1N1CCOCC1)Nc1nccc-2n1 (centres unmarked)
(e) CCS(=O)(=O)n1cc2c3ccc(cc31)OCCCn1cc(cn1)-c1cc(cc(CC(C)C)c1N1CCOCC1)Nc1ncc(Cl)c-2n1
Hi! Can you put these in order of IC50, lowest number first? Output the labels ranked as instructed.
c, d, a, b, e
